B1: CPEB3 Ribozyme (parent)
chain: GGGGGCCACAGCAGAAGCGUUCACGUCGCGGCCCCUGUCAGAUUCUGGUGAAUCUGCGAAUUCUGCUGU

# Variants of: B1
# Experimental details: self-cleavage, relative activity (ratio to wild type); higher = more cleavage; co-transcriptional
Reported property: self-cleavage

[[record]]
variant_annotation = "G3A G50C"
reported_property = "self-cleavage"
meas_value = 0.595

[[record]]
variant_annotation = "G41U U67A"
reported_property = "self-cleavage"
meas_value = 0.888

[[record]]
variant_annotation = "G5A C9G"
reported_property = "self-cleavage"
meas_value = 0.982

[[record]]
variant_annotation = "A52C G56A"
reported_property = "self-cleavage"
meas_value = 0.826

[[record]]
variant_annotation = "C22A C24A"
reported_property = "self-cleavage"
meas_value = 0.0966

[[record]]
variant_annotation = "C18G C29G"
reported_property = "self-cleavage"
meas_value = 0.187

[[record]]
variant_annotation = "G1U G19C"
reported_property = "self-cleavage"
meas_value = 0.0611

[[record]]
variant_annotation = "C12U G56C"
reported_property = "self-cleavage"
meas_value = 0.554

[[record]]
variant_annotation = "G37A C63G"
reported_property = "self-cleavage"
meas_value = 0.258

[[record]]
variant_annotation = "G25U C66G"
reported_property = "self-cleavage"
meas_value = 0.187

[[record]]
variant_annotation = "G28C U46A"
reported_property = "self-cleavage"
meas_value = 0.173

